Ref: patent US20230257383A1

Test: Blood-brain barrier permeability test, oral, SD rats
Format: in vivo
Settings: rat, brain, oral 10 mg/kg single dose, time point 4 h, read-out: Drug concentration in brain tissue
MEASURED ENDPOINT: log10 of concentration at 4 h (log10 of the value in ng/g)
Lab note - concentration at 4 h converted to log10 from values in ng/g.

Request: State its log10 of concentration at 4 h for this compound: Cc1cc(Nc2ncnc3ccc(NC4=NC(C)(C)CO4)cc23)ccc1Oc1ccn2ncnc2c1 [Tucatinib, reference compound]
Response: 1.39

Request: Using known records, supply log10 of concentration at 4 h for CC#CC(=O)N1CC[C@@H](n2c(=O)n(-c3ccc(Oc4ccccc4)cc3)c3c(N)ncnc32)C1 [Tirabrutinib, reference compound]
Response: 1.12

Request: Write down log10 of concentration at 4 h measured for item Nc1nccn2c(C34CCC(CO)(CC3)OC4)nc(-c3ccc(C(F)(F)c4cccc(F)c4Cl)cc3)c12 [Example 146]
Response: 2.61

Request: Item Nc1nccn2c(C3CCC(CO)OC3)nc(-c3ccc(C(F)(F)c4ccccc4)cc3)c12 (single isomer, unassigned) [Example 111-P1] : provide log10 of concentration at 4 h
Response: 2.90

Request: Read off the recorded log10 of concentration at 4 h for Nc1nccn2c(C34CCC(CO)(CC3)OC4)nc(-c3ccc(C(F)(F)c4ccccc4F)cc3)c12 [Example 145]
Response: 2.96

Request: Identify the reported log10 of concentration at 4 h for the following entry. Nc1nccn2c(C34CCC(CO)(CC3)OC4)nc(-c3ccc(C(F)(F)c4ccccc4)cc3)c12 [Example 125]
Response: 3.03

Request: Supply log10 of concentration at 4 h value. Item: Nc1nccn2c(C34CCC(CO)(CC3)OC4)nc(-c3ccc(C(F)(F)c4ccccc4Cl)cc3)c12 [Example 155]
Response: 3.10

Request: Return value of log10 of concentration at 4 h for input Nc1nccn2c(C34CCC(CO)(CC3)OC4)nc(-c3ccc(C(F)(F)c4cccc(Cl)c4F)cc3)c12 [Example 152] , no commentary.
Response: 2.37
